Experiment: Cell viability staining with Alamar Blue (compound cytotoxicity)
Format: cell-based
Conditions: Chinese hamster, CHO cells (Chinese hamster ovary), positive control with known CC50
measure_name: CC50

Exercise: Given the entry CC(C)(C)c1ccc(C(O)CCCN2CCC(C(O)(c3ccccc3)c3ccccc3)CC2)cc1 (stereo not shown) [Terfenadine] , report its measured CC50.
Solution: 4.3 to 6.5 µM

---

Assay: Cell viability staining with Alamar Blue (compound cytotoxicity)
Type: cell-based
Conditions: human, Hep 2 cells (laryngeal carcinoma), positive control with known CC50
measure_name: CC50

Exercise: Data request, read-out CC50, for CC(C)(C)c1ccc(C(O)CCCN2CCC(C(O)(c3ccccc3)c3ccccc3)CC2)cc1 (stereo not shown)
Solution: 3 to 5 µM

Reference source: patent US8114888B2
